Tested on: NCI-H650
assay-protocol: relative viability (nuclei count vs DMSO), 5 days (fraction); higher = more cells survive
recorded-conditions: first compound 0.5 µM
Assignment: determine reported relative viability for the given molecules.

Value of measured relative viability for the entry COc1cc2nccc(Oc3ccc(NC(=O)Nc4cc(C)on4)c(Cl)c3)c2cc1OC [Tivozanib] + Nc1nc2[nH]cc(CCc3ccc(C(=O)N[C@@H](CCC(=O)O)C(=O)O)cc3)c2c(=O)[nH]1 [Pemetrexed] (partner 0.2 µM) : 0.734

Form field relative viability, entry COc1cc2nccc(Oc3ccc(NC(=O)Nc4cc(C)on4)c(Cl)c3)c2cc1OC [Tivozanib] + C[C@]1(O)C[C@@H](c2nc(-c3ccc4ccc(-c5ccccc5)nc4c3)c3c(N)nccn32)C1 [Linsitinib] (partner 1 µM) : 0.542

###

Test system: COR-L23
assay-protocol: relative viability (nuclei count vs DMSO), 5 days (fraction); higher = more cells survive
recorded-conditions: first compound 0.08 µM
experimental-readout: relative viability
Write no unit; give the number alone.

Noted relative viability for O=c1[nH]c2ccccc2n1C1CCN(CCCC(c2ccc(F)cc2)c2ccc(F)cc2)CC1 [Pimozide] + CS(=O)(=O)N1CCN(Cc2cc3nc(-c4cccc5[nH]ncc45)nc(N4CCOCC4)c3s2)CC1 [Pictilisib] (partner 1 µM) , tested on COR-L23: 0.705

The compound O=c1[nH]c2ccccc2n1C1CCN(CCCC(c2ccc(F)cc2)c2ccc(F)cc2)CC1 [Pimozide] + Cc1cc(Nc2cc(N3CCN(C)CC3)nc(Sc3ccc(NC(=O)C4CC4)cc3)n2)n[nH]1 [Tozasertib] (partner 0.1 µM) , when measured on COR-L23, yielded relative viability of 0.194

Entry O=c1[nH]c2ccccc2n1C1CCN(CCCC(c2ccc(F)cc2)c2ccc(F)cc2)CC1 [Pimozide] + COc1cccc2cc(-c3nc([C@H]4CC[C@H](C(=O)O)CC4)n4ncnc(N)c34)[nH]c12 [OSI-027] (partner 0.5 µM) , COR-L23 data, relative viability value: 0.757

So the reported relative viability for Cc1cnc(-c2cnc(NCCNc3ccc(C#N)cn3)nc2-c2ccc(Cl)cc2Cl)[nH]1 + C[C@@H](Oc1cc(-c2cnn(C3CCNCC3)c2)cnc1N)c1c(Cl)ccc(F)c1Cl [Crizotinib] (partner 1 µM) , on COR-L23, turned out to be 0.619

// relative viability (COR-L23) for Cc1cnc(-c2cnc(NCCNc3ccc(C#N)cn3)nc2-c2ccc(Cl)cc2Cl)[nH]1 + Cc1cc(Nc2cc(N3CCN(C)CC3)nc(Sc3ccc(NC(=O)C4CC4)cc3)n2)n[nH]1 [Tozasertib] (partner 0.1 µM) = 0.205

Short answer on COR-L23 for Cc1cnc(-c2cnc(NCCNc3ccc(C#N)cn3)nc2-c2ccc(Cl)cc2Cl)[nH]1 + N=C(N)NC(=N)NCCc1ccccc1 [Phenformin] (partner 250 µM) , relative viability: 0.493

Reported COR-L23 relative viability for item O=c1[nH]c2ccccc2n1C1CCN(CCCC(c2ccc(F)cc2)c2ccc(F)cc2)CC1 [Pimozide] + CCNC(=O)c1noc(-c2cc(C(C)C)c(O)cc2O)c1-c1ccc(CN2CCOCC2)cc1 [Luminespib] (partner 0.01 µM) was 0.603

###

Please go through the items and note down their relative viability.
System: NCI-H2347
assay-protocol: relative viability (nuclei count vs DMSO), 5 days (fraction); higher = more cells survive
recorded-conditions: first compound 500 µM
// return just the number, without any unit appended

Measured relative viability of O=C(O)CCCCC(CCSCc1ccccc1)SCc1ccccc1 (centres undefined) [CPI-613] + C[C@]1(O)C[C@@H](c2nc(-c3ccc4ccc(-c5ccccc5)nc4c3)c3c(N)nccn32)C1 [Linsitinib] (partner 1 µM) : 0.868

The recorded relative viability for entry O=C(O)CCCCC(CCSCc1ccccc1)SCc1ccccc1 (centres undefined) [CPI-613] + C[C@@H](Oc1cc(-c2cnn(C3CCNCC3)c2)cnc1N)c1c(Cl)ccc(F)c1Cl [Crizotinib] (partner 1 µM) equals 0.55

Entry O=C(O)CCCCC(CCSCc1ccccc1)SCc1ccccc1 (centres undefined) [CPI-613] + CC(=O)Nc1cccc(-n2c(=O)n(C3CC3)c(=O)c3c(Nc4ccc(I)cc4F)n(C)c(=O)c(C)c32)c1 [Trametinib] (partner 0.02 µM) — recorded relative viability = 0.206

Per the record, O=C(O)CCCCC(CCSCc1ccccc1)SCc1ccccc1 (centres undefined) [CPI-613] + Cc1nc(Nc2ncc(C(=O)Nc3c(C)cccc3Cl)s2)cc(N2CCN(CCO)CC2)n1 [Dasatinib] (partner 0.075 µM) has relative viability of 0.327

###

Test system: HCC-827
assay-protocol: relative viability (nuclei count vs DMSO), 5 days (fraction); higher = more cells survive
recorded-conditions: first compound 50 µM
experimental-readout: relative viability
# answer = number (no unit)

Quick note, relative viability for O=C(O)CCCCC(CCSCc1ccccc1)SCc1ccccc1 (stereo not given) [CPI-613] + CC(C)C[C@H](NC(=O)[C@H](Cc1ccccc1)NC(=O)c1cnccn1)B(O)O [Bortezomib] (partner 0.002 µM) landed at 0.926

Reported relative viability ( O=C(O)CCCCC(CCSCc1ccccc1)SCc1ccccc1 (stereo not given) [CPI-613] + CC(=O)Nc1cccc(-n2c(=O)n(C3CC3)c(=O)c3c(Nc4ccc(I)cc4F)n(C)c(=O)c(C)c32)c1 [Trametinib] (partner 0.02 µM) ) = 0.571

According to the records, this compound O=C(O)CCCCC(CCSCc1ccccc1)SCc1ccccc1 (stereo not given) [CPI-613] + CC1(C)CCC(c2ccc(Cl)cc2)=C(CN2CCN(c3ccc(C(=O)NS(=O)(=O)c4ccc(N[C@H](CCN5CCOCC5)CSc5ccccc5)c(S(=O)(=O)C(F)(F)F)c4)cc3)CC2)C1 [Navitoclax] (partner 0.5 µM) displays relative viability of 0.877

Data point: O=C(O)CCCCC(CCSCc1ccccc1)SCc1ccccc1 (stereo not given) [CPI-613] + Cc1nc(Nc2ncc(C(=O)Nc3c(C)cccc3Cl)s2)cc(N2CCN(CCO)CC2)n1 [Dasatinib] (partner 0.075 µM) ; relative viability = 0.405

Lab book: relative viability of O=C(O)CCCCC(CCSCc1ccccc1)SCc1ccccc1 (stereo not given) [CPI-613] + Cc1nc(NC(=O)N2CCC[C@H]2C(N)=O)sc1-c1ccnc(C(C)(C)C(F)(F)F)c1 [Alpelisib] (partner 2 µM) noted as 0.974

###

Test system: HCC-15
assay-protocol: relative viability (nuclei count vs DMSO), 5 days (fraction); higher = more cells survive
recorded-conditions: first compound 0.02 µM
Field: relative viability. Provide a value for each of the compounds that follow.
Answer with a bare number; do not write a unit.

# lookup: CC(=O)O[C@@]12CO[C@@H]1C[C@H](O)[C@@]1(C)C(=O)[C@H](O)C3=C(C)[C@@H](OC(=O)[C@H](O)[C@@H](NC(=O)OC(C)(C)C)c4ccccc4)C[C@@](O)([C@@H](OC(=O)c4ccccc4)[C@H]21)C3(C)C [Docetaxel] + Nc1nc2[nH]cc(CCc3ccc(C(=O)N[C@@H](CCC(=O)O)C(=O)O)cc3)c2c(=O)[nH]1 [Pemetrexed] (partner 0.2 µM) on HCC-15, relative viability = 0.181

Response field relative viability (HCC-15) for item CC(=O)O[C@@]12CO[C@@H]1C[C@H](O)[C@@]1(C)C(=O)[C@H](O)C3=C(C)[C@@H](OC(=O)[C@H](O)[C@@H](NC(=O)OC(C)(C)C)c4ccccc4)C[C@@](O)([C@@H](OC(=O)c4ccccc4)[C@H]21)C3(C)C [Docetaxel] + Nc1ncn([C@H]2C[C@H](O)[C@@H](CO)O2)c(=O)n1 [Decitabine] (partner 2 µM) : 0.191

CC(=O)O[C@@]12CO[C@@H]1C[C@H](O)[C@@]1(C)C(=O)[C@H](O)C3=C(C)[C@@H](OC(=O)[C@H](O)[C@@H](NC(=O)OC(C)(C)C)c4ccccc4)C[C@@](O)([C@@H](OC(=O)c4ccccc4)[C@H]21)C3(C)C [Docetaxel] + Cc1nc(Nc2ncc(C(=O)Nc3c(C)cccc3Cl)s2)cc(N2CCN(CCO)CC2)n1 [Dasatinib] (partner 0.075 µM) on HCC-15 gives relative viability = 0.115

So the reported relative viability for CC(=O)O[C@@]12CO[C@@H]1C[C@H](O)[C@@]1(C)C(=O)[C@H](O)C3=C(C)[C@@H](OC(=O)[C@H](O)[C@@H](NC(=O)OC(C)(C)C)c4ccccc4)C[C@@](O)([C@@H](OC(=O)c4ccccc4)[C@H]21)C3(C)C [Docetaxel] + COc1cc2c(Oc3ccc(NC(=O)C4(C(=O)Nc5ccc(F)cc5)CC4)cc3F)ccnc2cc1OCCCN1CCOCC1 [Foretinib] (partner 0.25 µM) , on HCC-15, turned out to be 0.162

###

Tested on: NCI-H661
assay-protocol: relative viability (nuclei count vs DMSO), 5 days (fraction); higher = more cells survive
recorded-conditions: first compound 500 µM
I'd appreciate it if you could supply relative viability values for the items below.
Give only the figure.

Short answer for O=C(O)CCCCC(CCSCc1ccccc1)SCc1ccccc1 (stereo unspecified) [CPI-613] + Cc1nc(NC(=O)N2CCC[C@H]2C(N)=O)sc1-c1ccnc(C(C)(C)C(F)(F)F)c1 [Alpelisib] (partner 2 µM) : relative viability was 0.608

What the record says about O=C(O)CCCCC(CCSCc1ccccc1)SCc1ccccc1 (stereo unspecified) [CPI-613] + Nc1ncn([C@H]2C[C@H](O)[C@@H](CO)O2)c(=O)n1 [Decitabine] (partner 2 µM) : relative viability is 0.0993

Recorded result, O=C(O)CCCCC(CCSCc1ccccc1)SCc1ccccc1 (stereo unspecified) [CPI-613] + Cc1cc(Nc2cc(N3CCN(C)CC3)nc(Sc3ccc(NC(=O)C4CC4)cc3)n2)n[nH]1 [Tozasertib] (partner 0.1 µM) , relative viability: 0.203

Lab note: O=C(O)CCCCC(CCSCc1ccccc1)SCc1ccccc1 (stereo unspecified) [CPI-613] + CS(=O)(=O)CCNCc1ccc(-c2ccc3ncnc(Nc4ccc(OCc5cccc(F)c5)c(Cl)c4)c3c2)o1 [Lapatinib] (partner 2 µM) gave relative viability of 0.576

The compound listed as O=C(O)CCCCC(CCSCc1ccccc1)SCc1ccccc1 (stereo unspecified) [CPI-613] + CC(=O)Nc1cccc(-n2c(=O)n(C3CC3)c(=O)c3c(Nc4ccc(I)cc4F)n(C)c(=O)c(C)c32)c1 [Trametinib] (partner 0.02 µM) has a reported relative viability of 0.133

relative viability recorded for this compound, O=C(O)CCCCC(CCSCc1ccccc1)SCc1ccccc1 (stereo unspecified) [CPI-613] + CS(=O)(=O)N1CCN(Cc2cc3nc(-c4cccc5[nH]ncc45)nc(N4CCOCC4)c3s2)CC1 [Pictilisib] (partner 1 µM) , is 0.367

The measured values listed here are drawn from the supplement of paper PMC10307832.
